- System: OVCAR-4
- test-protocol: NCI tumour cell line growth inhibition, 48 h
The source made the active and inactive calls. No stated cut-off is given here; in the data, active = GI50 up to about 1.1 µM and inactive = higher.
measured-property: GI50

Example molecules with recorded GI50:
[
  {
    "molecule": "Cc1cc(O)c2c(c1)C(=O)c1cc(O)cc(O)c1C2=O",
    "value-observed": "30.6 µM (inactive)"
  },
  {
    "molecule": "C#Cc1c(C)c(/C=C/C(C)=C/C=C/C(C)=C/C(=O)OC)n(C)c1C",
    "value-observed": "> 100 µM (inactive)"
  },
  {
    "molecule": "CC1=C[C@@H]2Cc3occc3C(C)(C)[C@@H]2CC1",
    "value-observed": "29.4 µM (inactive)"
  },
  {
    "molecule": "C=C1CCC23CC(CC[C@@H]2[C@@]12C[C@@H](c1ccoc1)OC2=O)OC3=O (some centres not stated)",
    "value-observed": "> 100 µM (inactive)"
  },
  {
    "molecule": "CCc1ccccc1NC(=O)CCc1n[nH]c(=S)o1",
    "value-observed": "> 100 µM (inactive)"
  }
]

Lookup: GI50 / OVCAR-4 / CC(=O)O[C@H]1CC[C@@]2(C)C(=CC[C@@H]3C2CC[C@]2(C)Nc4c(cnn4-c4ccccc4)CC32)C1 (some centres not stated) 14.9 µM (inactive)

Cc1cc(S(=O)(=O)NC2=NNC(C)CN2)c(S)cc1Cl (configuration not stated) , same question. 44.1 µM (inactive)

What about this molecule? CC1C(=O)CC(c2cccs2)N(N=O)C1c1cccs1 (configuration not stated) 50.2 µM (inactive)

Note, next up: COc1ccc2oc(C(=O)O)c3c2c1CCC3CCC(=O)O (configuration not stated) > 100 µM (inactive)

And the next one, `COc1cc2c(cc1OC)C(=O)/C(=C/c1cc(C)c(O)c(C)c1)C2` ? > 100 µM (inactive)

CC1(c2cccc(Cl)c2)CC(c2cccc(Cl)c2)=C(C#N)C(=C(C#N)C#N)N1 (configuration not stated) , same question. 14.2 µM (inactive)

// repeat for CC1=CC[C@@]2(C)CC[C@](O)(C(C)C)C2C(OC(=O)c2ccccc2)C1 (some centres not stated) and report 25 µM (inactive)

Would you mind doing Fc1cccc(C2SCc3nc4ccccc4n32)c1F (configuration not stated) as well? 42.1 µM (inactive)

What about `O=C(CN1CCCCC1)c1ccc2c(c1)Sc1ccccc1O2` ? 13 µM (inactive)

Also need [O-][S+](c1ccc(Cl)cc1)c1ccccc1C1=NCCN1 (configuration not stated) , thanks. > 100 µM (inactive)

Let us now turn to COC(=O)CC(C(C(=O)OCc1ccccc1)C(C)O)N1C(=O)OC(c2ccccc2)C1c1ccccc1 (configuration not stated) > 100 µM (inactive)

----------
- System: LOX IMVI
- test-protocol: NCI tumour cell line growth inhibition, 48 h
Activity calls are given as the source filed them. Rule as the data show it: active = GI50 up to about 1.1 µM and inactive = higher.
measured-property: GI50

[
  {
    "compound": "C/C(=N/O)c1cccc(Nc2nc3ccc(Cl)cc3c3[nH]c4ccccc4c23)c1",
    "target-of-assay": "LOX IMVI",
    "GI50": "1.91 µM (inactive)"
  },
  {
    "compound": "CC(C)(C)c1ccc(OCCOc2ccc(C(C)(C)C)cc2N)c(N)c1",
    "target-of-assay": "LOX IMVI",
    "GI50": "27.8 µM (inactive)"
  },
  {
    "compound": "COC(=O)/C(C#N)=C1\\NN=NN1CCCc1ccccc1",
    "target-of-assay": "LOX IMVI",
    "GI50": "> 100 µM (inactive)"
  }
]

Entry `O=C(O)CNn1c(SCC(=O)O)nnc(/C=C/c2c(O)ccc3ccccc23)c1=O` : reported GI50 = ? 7.5 µM (inactive)

Next entry: `O=C(O)c1ccc(C2=Nc3cccc4cccc(c34)N2)cc1` > 100 µM (inactive)

Also need `Cc1cc(S(=O)(=O)n2ccnc2Oc2cccc(Cl)c2)c(SSc2cc(Cl)c(C)cc2S(=O)(=O)n2ccnc2Oc2cccc(Cl)c2)cc1Cl` , thanks. 30 µM (inactive)

Query `Cc1cc2c(=O)[nH]nc(N)c2c(N)n1` next > 100 µM (inactive)

Moving on to `c1ccc(CCNc2ccccn2)nc1` > 100 µM (inactive)

Proceed to `O=C1N[C@@H]2c3c(csc3Br)C(=O)[C@@H]2O1` 19 µM (inactive)

Could you do the same for COC(=O)c1c2c(cc3c1CC1(Cc4cc5c(c(C)c4C1)CCC5)C3)CCC2 (stereo not given) , please? > 100 µM (inactive)

One more compound: CCCCNC(=O)C1C2CCC(O2)C1C(=O)O (stereo not given) 16.5 µM (inactive)
